These entries and their values trace back to patent US7264956B2.

TGT: isolated enzyme (extracts of A×20) (Corynebacterium striatum)
Construct: an enzyme may be isolated from cellular extracts obtained from wild-type bacterial strains; endogenous in cells; host or cells: Corynebacterium striatum Ax20 (DSM 14267), mechanically disrupted; crude extract or chromatographically purified enzyme
Sequence (Q8GGD4 2-400): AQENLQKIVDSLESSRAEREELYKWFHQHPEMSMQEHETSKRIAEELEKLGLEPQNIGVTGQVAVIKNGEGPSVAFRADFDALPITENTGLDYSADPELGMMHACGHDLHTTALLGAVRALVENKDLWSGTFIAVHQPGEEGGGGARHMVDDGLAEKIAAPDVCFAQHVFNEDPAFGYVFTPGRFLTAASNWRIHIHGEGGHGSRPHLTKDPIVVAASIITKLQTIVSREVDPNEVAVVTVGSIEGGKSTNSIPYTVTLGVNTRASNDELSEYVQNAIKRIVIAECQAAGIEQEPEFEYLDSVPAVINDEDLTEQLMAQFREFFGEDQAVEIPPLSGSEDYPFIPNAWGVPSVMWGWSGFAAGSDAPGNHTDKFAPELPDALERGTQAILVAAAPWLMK
ASSAY_METHOD_TEXT: Low throughput screening for inhibitors, isolated enzyme (released lauric acid by GC)
Type: biochemical
PROTOCOL_CONDITIONS: 5 mM; substrate Nα-lauroyl-L-glutamine, 2 h
# reported inhibition at 5000 µM; entries follow
ASSAY_READOUT: inhibition at 5000 µM (%)

[[record]]
compound = "c1ccc(-c2ccccn2)nc1 [2,2′-bipyridyl]"
assay_readout = "inhibition at 5000 µM"
measured_value = 65

[[record]]
compound = "OC(CS)C(O)CS (stereo not shown) [Dithiothreitol, 2,3-dihydroxy-butane-1,4-dithiol]"
assay_readout = "inhibition at 5000 µM"
measured_value = 100

[[record]]
compound = "O=C(O)c1cccc(C(=O)O)n1 [Pyridine-2,6dicarboxylic acid]"
assay_readout = "inhibition at 5000 µM"
measured_value = 100

[[record]]
compound = "c1ccc(CN(CCN(Cc2ccccn2)Cc2ccccn2)Cc2ccccn2)nc1"
assay_readout = "inhibition at 5000 µM"
measured_value = 87.9

